PROTOCOL_TEXT: Inhibition of preformed Cu2+-induced amyloid beta (1 to 40) fibril aggregation assessed as remaining fibril aggregates at 100 uM after 4 days at pH 6.60 by thioflavin-T fluorescence assay
Listed here are compounds together with their documented Activity.

COMPOUND: Oc1cccc(CNc2ccccc2O)c1
QUANTITY_UNIT: %
Activity: 144
--
COMPOUND: Oc1ccccc1/N=C/c1c(O)ccc2ccccc12
QUANTITY_UNIT: %
Activity: 66.4
--
COMPOUND: Oc1ccc(/N=C/c2c(O)ccc3ccccc23)c(O)c1
QUANTITY_UNIT: %
Activity: 46
--
COMPOUND: Oc1ccc(CNc2ccccc2O)cc1
QUANTITY_UNIT: %
Activity: 152
--
COMPOUND: Oc1ccc(CNc2ccccc2O)cc1O
QUANTITY_UNIT: %
Activity: 76.5
--
COMPOUND: Oc1ccc(/C=C/c2cc(O)cc(O)c2)cc1 [RESVERATROL]
QUANTITY_UNIT: %
Activity: 239
